# TARGET_ENTITY: T1, P9-AA
# T1 chain: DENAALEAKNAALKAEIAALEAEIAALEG
# PROCEDURE_TEXT: two-hybrid library CCmax;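 also: natural log of median RNA to DNA barcode read ratio; higher means stronger binding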
# CONDITION_PARAMETERS: mean of both orientations
PARAMETER_MEASURED: interaction score

Sample answers from the record:
{"BINDER": "DEIAALEAKNAALKAEIAALEAKNAALKG [P7-AA]", "PARAMETER_MEASURED": "interaction score", "EXPERIMENTAL_VALUE": -1.14}
{"BINDER": "DKNAALKAENAALEAEIAALEAEIAALEG [O1-AA]", "PARAMETER_MEASURED": "interaction score", "EXPERIMENTAL_VALUE": -0.278}
{"BINDER": "DKNAALKAKIAALKAKIAALKAENAALEG [P12-AA]", "PARAMETER_MEASURED": "interaction score", "EXPERIMENTAL_VALUE": 0.219}

(1) DKNAALKAENAALEAKIAALKAKIAALKG [P10-AA]
(2) DKIAALKAEIAALEAKNAALKAKNAALKG [O4-AA]
// query Which of the two items, 1 and 2 , has the greater recorded interaction score? Select an item and report its label.
// result 1
(1: 2.32, 2: -1.16)

(I) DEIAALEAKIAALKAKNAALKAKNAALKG [4H384-AA]
(II) DKNAALKAKIAALKAKNAALKAEIAALEG [O13-AA]
// query Which of the two items, I and II , has the greater recorded interaction score? Select an item and report its label.
// result I
(I: -0.334, II: -1.16)
